B1: TSN (parent)
chain: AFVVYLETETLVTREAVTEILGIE

Variants of: B1
METHOD_SUMMARY: protein stability index of a GFP-peptide fusion (GPS, HEK-293T) (PSI 1-6); higher = more stable;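 also: lentivirally expressed fusions sorted by FACS into six bins by GFP to DsRed ratio, PSI derived from sequencing read proportions per bin multiplied by bin number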
CONDITION_INFO: c terminus: a fixed tail appended
Binary classification by protein stability index, with 3 as an inclusive lower bound for 1.0; all other cases are 0.0.

>>> cat("V3F")
0.0
>>> cat("E9R")
0.0
>>> cat("V12D")
1.0
>>> cat("E9M")
0.0
>>> cat("E7W")
1.0
>>> cat("Y5F")
0.0
>>> cat("E9N")
1.0
>>> cat("V3R")
0.0
>>> cat("E24V")
0.0
>>> cat("T8D")
0.0
>>> cat("A1D")
0.0
>>> cat("T10M")
0.0
>>> cat("L21W")
0.0
>>> cat("F2W")
0.0
>>> cat("E7N")
1.0
>>> cat("V3T")
1.0
>>> cat("T8Q")
0.0
>>> cat("T8V")
0.0
>>> cat("E24D")
0.0
>>> cat("V12A")
1.0
>>> cat("F2Q")
0.0
>>> cat("E24W")
0.0
